viability, T/C values for the molecules below.
Test system: K98450-129-R-PDC complex spheroid growth, percent test/control
assay name: Anticancer human tumor K98450-129-R-PDC patient-derived colon adenocarcinoma cell line growth inhibition [RAS]
stated conditions: second compound 0.316 µM; first compound 0.316 µM; active compounds read low

molecule | assay target | unit string | viability, T/C
C=CC(=O)Nc1cc(Nc2nccc(-c3cn(C)c4ccccc34)n2)c(OC)cc1N(C)CCN(C)C + C#Cc1c(F)ccc2cc(O)cc(-c3ncc4c(N5CC6CCC(C5)N6)nc(OCC56CCCN5CC(F)C6)nc4c3F)c12 | K98450-129-R-PDC complex spheroid growth, percent test/control | % | 78.6
CC1(O)CCCC1n1c(=O)c(C(F)F)cc2cnc(NC3CCN(S(C)(=O)=O)CC3)nc21 (stereo not given) + C#Cc1c(F)ccc2cc(O)cc(-c3ncc4c(N5CC6CCC(C5)N6)nc(OCC56CCCN5CC(F)C6)nc4c3F)c12 | K98450-129-R-PDC complex spheroid growth, percent test/control | % | 92.4
C=CC(=O)N1CCN(c2nc(OCC3CCCN3C)nc3c(F)c(-c4nc(N)cc(C)c4C(F)(F)F)c(Cl)cc23)C(C)C1 (stereo not given) + C#Cc1c(F)ccc2cc(O)cc(-c3ncc4c(N5CC6CCC(C5)N6)nc(OCC56CCCN5CC(F)C6)nc4c3F)c12 | K98450-129-R-PDC complex spheroid growth, percent test/control | % | 33.9
CCN1CCN(Cc2ccc(Nc3ncc(F)c(-c4cc(F)c5nc(C)n(C(C)C)c5c4)n3)nc2)CC1 + C#Cc1c(F)ccc2cc(O)cc(-c3ncc4c(N5CC6CCC(C5)N6)nc(OCC56CCCN5CC(F)C6)nc4c3F)c12 | K98450-129-R-PDC complex spheroid growth, percent test/control | % | 74.5
Nc1ccn(C2OC(CO)C(O)C2(F)F)c(=O)n1 (stereo not given) + C#Cc1c(F)ccc2cc(O)cc(-c3ncc4c(N5CC6CCC(C5)N6)nc(OCC56CCCN5CC(F)C6)nc4c3F)c12 | K98450-129-R-PDC complex spheroid growth, percent test/control | % | 33.9

----------
Tested on: K98450-129-R-PDC complex spheroid growth, percent test/control
assay name: Anticancer human tumor K98450-129-R-PDC cell line growth inhibition [RAS];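 further: luminescence used as a proxy for viable cell amount; spheroids exposed to agents for seven days before the viability readout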
stated conditions: second compound 0.1 µM; first compound 0.316 µM; active compounds read low
Response field label: string, one of y (viability, T/C strictly below 40%) or n.

compound | assigned label
CC(=O)OC12COC1CC(O)C1(C)C(=O)C(O)C3=C(C)C(OC(=O)C(O)C(NC(=O)OC(C)(C)C)c4ccccc4)CC(O)(C(OC(=O)c4ccccc4)C21)C3(C)C (stereo not given) + C=CC(=O)N1CCN(c2nc(OCC3CCCN3C)nc3c(F)c(-c4nc(N)cc(C)c4C(F)(F)F)c(Cl)cc23)C(C)C1 | y
CCC(CC)c1cc(NC2CCC(N)C2)n2nccc2n1 (stereo not given) + C#Cc1c(F)ccc2cc(O)cc(-c3ncc4c(N5CC6CCC(C5)N6)nc(OCC56CCCN5CC(F)C6)nc4c3F)c12 | n
CC(C)NCC(C(=O)N1CCN(c2ncnc3c2C(C)CC3O)CC1)c1ccc(Cl)cc1 (stereo not given) + C#Cc1c(F)ccc2cc(O)cc(-c3ncc4c(N5CC6CCC(C5)N6)nc(OCC56CCCN5CC(F)C6)nc4c3F)c12 | n
O=C(c1ccc(F)c(F)c1Nc1ccc(I)cc1F)N1CC(O)([C@@H]2CCCCN2)C1 + C#Cc1c(F)ccc2cc(O)cc(-c3ncc4c(N5CC6CCC(C5)N6)nc(OCC56CCCN5CC(F)C6)nc4c3F)c12 | y
C=CC(=O)Nc1cc(Nc2nccc(-c3cn(C)c4ccccc34)n2)c(OC)cc1N(C)CCN(C)C + C#Cc1c(F)ccc2cc(O)cc(-c3ncc4c(N5CC6CCC(C5)N6)nc(OCC56CCCN5CC(F)C6)nc4c3F)c12 | n
CC(=O)OC12COC1CC(O)C1(C)C(=O)C(O)C3=C(C)C(OC(=O)C(O)C(NC(=O)OC(C)(C)C)c4ccccc4)CC(O)(C(OC(=O)c4ccccc4)C21)C3(C)C (stereo not given) + C#Cc1c(F)ccc2cc(O)cc(-c3ncc4c(N5CC6CCC(C5)N6)nc(OCC56CCCN5CC(F)C6)nc4c3F)c12 | n
Nc1ccn(C2OC(CO)C(O)C2(F)F)c(=O)n1 (stereo not given) + C#Cc1c(F)ccc2cc(O)cc(-c3ncc4c(N5CC6CCC(C5)N6)nc(OCC56CCCN5CC(F)C6)nc4c3F)c12 | y
CC1(O)CCCC1n1c(=O)c(C(F)F)cc2cnc(NC3CCN(S(C)(=O)=O)CC3)nc21 (stereo not given) + C=CC(=O)N1CCN(c2nc(OCC3CCCN3C)nc3c(F)c(-c4nc(N)cc(C)c4C(F)(F)F)c(Cl)cc23)C(C)C1 | n
Cc1nc(N2CCC3(CC2)COC(C)C3N)c(CO)nc1Sc1ccnc(N)c1Cl (stereo not given) + C=CC(=O)N1CCN(c2nc(OCC3CCCN3C)nc3c(F)c(-c4nc(N)cc(C)c4C(F)(F)F)c(Cl)cc23)C(C)C1 | y

src = PubChem BioAssay AID2060891
